- TARGET DESC: Glucose transporter (Leishmania mexicana)
- EXPERIMENT: ST_JUDE_LEISH: Cytotoxicity at 2uM final concentration against transgenic Leishmania Mexicana promastigotes LmGT2 that are glucose transport deficient and complemented with the L. Mexicana glucose transporter 2. Activity is measured by DNA content using SYBR green in vitro
- Type: functional
QUANTITY MEASURED: inhibition (%)
Give bare numbers, in %.

// below: answered compounds
| COMPOUND | UNIT SYMBOL | inhibition |
| --- | --- | --- |
| CCN(CC)S(=O)(=O)c1ccc(C=CC(=O)Nc2cc(Cl)ccc2N2CCOCC2)cc1 | % | 5.02 |
| COc1cc(-c2cc(-c3ccc(S(C)(=O)=O)cc3)cnc2N)ccc1O | % | 9.19 |

Record inhibition per entry; entries follow.
1. COc1ccc(-n2ccnc2SCC(=O)Nc2cc(C(F)(F)F)ccc2Cl)c(OC)c1
2. COCc1nc(N)nc(N)c1-c1ccc(Cl)c(Cl)c1
3. Cc1ccc(C(=O)Nc2ccc(F)c(F)c2F)cc1S(=O)(=O)N1CCCCC1
4. CCOc1ccc2[nH]c(C)cc(=NN=Cc3ccccc3F)c2c1
5. CCCc1cc(Cc2cnc(N)nc2N)cc(CCC)c1OCCCCC(=O)OCC
6. O=C(Nc1ccc(Cl)cc1)N1CCN(C2CCCCC2)CC1
7. CN1CCN(C(C(=O)NCc2cc(Cl)cc(Cl)c2)c2ccccc2-c2ccsc2)CC1 (stereo unspecified)
8. CCNc1cc(C(=O)N[C@@H](Cc2ccccc2)[C@H](O)CNCc2cccc(-n3ccnc3)c2)cc(N2CCCC2=O)c1

[7.95, 0.08, 0.7, 3.86, 1.54, 3.2, 4.6, 1.12]

State its inhibition for this compound: Cc1cccc2nc(-c3cccc(-c4ccc(NC(=O)Nc5ccc(Cl)cc5)cc4)c3)[nH]c12
-3.06

---

- TARGET DESC: Hexose transporter 1 (Plasmodium falciparum) (UniProt O97467)
- EXPERIMENT: ST_JUDE_LEISH: Cytotoxicity at 2uM final concentration against transgenic Leishmania Mexicana promastigotes LmPfHT that are glucose transport deficient and complemented with the Plasmodium falciparum hexose transporter. Activity is measured by DNA content using SYBR green in vitro
- Format: functional
QUANTITY MEASURED: inhibition (%)
Answers are plain numbers, in %.

| MOLECULE | inhibition [%] |
| --- | --- |
| N#Cc1ccc(N2CCN(C(=O)c3cccc(-c4noc(C(F)(F)F)n4)c3)CC2)nc1 | 0.91 |

Report inhibition for every entry below.
1. N#Cc1ccc(-c2ccc(C(=O)NCCCCN3CCC(c4cn(CCCO)c5ccccc45)CC3)cc2)cc1
2. c1cc(-c2ccc(CN3CCN(c4ccncc4)CC3)cc2)cc(-c2nc3ccccc3[nH]2)c1
3. Cc1cccc2nc(-c3cccc(-c4ccc(NC(=O)CS(C)(=O)=O)cc4)c3)[nH]c12
4. c1ccc2cc3c(NCCN4CCOCC4)ccnc3cc2c1
5. CNCCNCc1ccc(-c2ccc(-c3nc4cc(C(F)(F)F)ccc4[nH]3)s2)cc1
6. NC(=O)c1ccccc1Nc1nc(Nc2cccc(N3CCN(CCO)CC3)c2)ncc1Cl
7. CCN(CC1CCN(CC2(O)CCOCC2)CC1)c1cc(C)nc(Nc2ccc(Cl)cc2)n1

1. 1.61
2. 3.51
3. 3.33
4. 6.74
5. 0.84
6. 67.3
7. 0.27

---

For each record, write down the corresponding inhibition.
- TARGET DESC: Glucose transporter (Leishmania mexicana) (UniProt O61059)
- EXPERIMENT: ST_JUDE_LEISH: Cytotoxicity at 2uM final concentration against transgenic Leishmania Mexicana promastigotes LmGT2 that are glucose transport deficient and complemented with the L. Mexicana glucose transporter 2. Activity is measured by DNA content using SYBR green in vitro
- Format: functional
One number for each entry, in %.

The following compounds have reported results that may help.
| COMPOUND | UNIT SYMBOL | inhibition |
| --- | --- | --- |
| CCn1c2c(c(=N)c3ccccc31)CCC2 | % | -1.61 |
| O=C(Nc1cc(Cl)ccc1-n1cncn1)C1(c2ccccc2)CC1 | % | 5.68 |
| COc1ccc2nccc([C@@H](O)CN3CCC(NCc4cn5cc(F)ccc5n4)CC3)c2c1 | % | -0.13 |
| Cc1[nH]c(C)c(-c2ccc(Oc3ccc(Cl)cc3)cc2)c(=O)c1Cl | % | 1.25 |
| CCCOc1ccc(CCCON2C(N)=NC(N)=NC2(C)C)cc1 | % | 6.99 |
| CN1CCC(c2csc3ccc(NC(=O)Nc4ccc(-c5ccncc5)c5ccccc45)cc23)CC1 | % | 2.4 |
| CC(Cc1ccc(OCCCCOc2ccccc2)cc1)NCCc1ccc(Oc2ccccc2)cc1 (stereo not given) | % | 78.2 |
| c1ccc2oc(-c3cc4ccncc4cc3OC3CCNCC3)cc2c1 | % | -3.28 |
| Cc1nnc(Sc2ncnc3scc(-c4ccc(F)cc4)c23)s1 | % | 1.02 |
| Cc1cnc(-c2ccc(NC(=O)N3CCc4cc5nccc(N6CCN7CCC[C@H]7C6)c5cc43)c3ccccc23)o1 | % | 4.04 |

Look at each compound and report its inhibition.
1. CS(=O)(=O)CCOCc1ccc(-c2ccc3ncnc(Nc4ccc(OCc5cccc(F)c5)c(Cl)c4)c3c2)o1
2. COc1ccc2nccc(N3CCC(CCNCc4ccc5c(n4)NC(=O)CO5)CC3)c2n1
3. COc1cc2c(cc1S(=O)(=O)c1ccc(NC(=O)c3cc4ccccc4s3)cc1)CCN(C)CC2
4. Cn1c(NC(=O)c2ccc(CNC(=O)c3ccc(O)c(-c4ccc(Cl)c(Cl)c4)c3)cc2)nc2ccccc21

1. 7
2. 1.8
3. 1.94
4. 3.29

---

- TARGET DESC: Solute carrier family 2, facilitated glucose transporter member 1 (Homo sapiens) (UniProt P11166)
- Sequence (P11166 whole entry): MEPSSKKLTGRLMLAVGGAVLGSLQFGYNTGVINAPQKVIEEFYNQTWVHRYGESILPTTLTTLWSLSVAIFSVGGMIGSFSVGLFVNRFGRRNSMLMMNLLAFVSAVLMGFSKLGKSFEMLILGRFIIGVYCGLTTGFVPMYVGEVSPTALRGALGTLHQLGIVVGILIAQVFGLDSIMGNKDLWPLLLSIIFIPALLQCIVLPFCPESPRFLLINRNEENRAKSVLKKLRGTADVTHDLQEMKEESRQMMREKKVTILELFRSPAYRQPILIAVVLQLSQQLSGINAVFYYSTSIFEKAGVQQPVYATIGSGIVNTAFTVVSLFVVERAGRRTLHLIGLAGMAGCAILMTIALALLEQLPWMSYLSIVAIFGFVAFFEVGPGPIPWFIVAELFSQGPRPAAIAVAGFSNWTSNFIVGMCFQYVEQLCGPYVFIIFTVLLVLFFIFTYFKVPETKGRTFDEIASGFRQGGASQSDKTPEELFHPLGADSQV
- EXPERIMENT: ST_JUDE_LEISH: Cytotoxicity at 2uM final concentration against transgenic Leishmania Mexicana promastigotes LmGLUT1 that are glucose transport deficient and complemented with the human glucose transporter GLUT1. Activity is measured by DNA content using SYBR green in vitro
- Format: functional
Everything with inhibition lower than 1% is label 0; everything else, including exactly 1%, is label 1.

These recorded examples may help you get a feel for the data.
| COMPOUND | LABEL |
| --- | --- |
| Cc1ccc(NC(=O)c2ccc(C(=O)NC3CCN(CC4CCCCC4)CC3)cc2)cc1 | label 1 |
| Cc1ccc(Nc2nc(N/N=C/c3cc4c(cc3Br)OCO4)nc(Nc3ccc([N+](=O)[O-])cc3)n2)cc1C | label 1 |
| COc1ccc(-c2ccc(NC(=O)c3ccc(F)cc3)cc2)cc1CNC(C)C | label 0 |
| CCCNc1ccc2nccc(CCN3CCC(NCc4ccc5c(c4)NC(=O)CS5)CC3)c2n1 | label 0 |
| C=C[C@]1(C)C[C@@H](OC(=O)CSC2CN3CCC2C3)[C@@]2(C)C3C(=O)CC[C@@]3(CC[C@H]2C)[C@@H](C)[C@@H]1O (some centres not stated) | label 1 |

Please check the record Cc1cc2c3c(N)nc(N)nc3ccc2n1C(C)C and state if its inhibition is at or above 1%.
label 1

Item CCN(CC)CCN(CCN(CC)CC)c1ccc2c(c1)Sc1c(Cl)ccc(Cl)c1S2 with inhibition of 1% or above?
label 1

---

- TARGET DESC: Glucose transporter (Leishmania mexicana) (UniProt O61059)
- EXPERIMENT: ST_JUDE_LEISH: Cytotoxicity at 2uM final concentration against transgenic Leishmania Mexicana promastigotes LmGT2 that are glucose transport deficient and complemented with the L. Mexicana glucose transporter 2. Activity is measured by DNA content using SYBR green in vitro
- Type: functional
Hi there, I'd appreciate the recorded inhibition for every entry that follows.
Give bare numbers, in %.

Previously resolved entries follow.
| MOLECULE | inhibition / % |
| --- | --- |
| CCC[C@@H]([C@@H](CC1CCCCC1)C(=O)N[C@@H](CCOC(=O)NCC)C(=O)Nc1nccs1)N(O)C=O | 9.7 |
| COc1ccc(S(=O)(=O)Nc2cc(Br)cc3c2OCCC3)cc1N1CCN(C(=O)C(Cl)(Cl)Cl)CC1 | -0.3 |

Below is a list of molecules. For each, state its recorded inhibition.
1. COc1cccc(-c2cnc(N)c(-c3nc4cc(Cl)c(F)cc4[nH]3)c2)c1
2. C=CC(C)C1OC(=O)c2cc(OC)cc(OC)c21 (stereo not given)

1: 8.86; 2: 86.8

---

- TARGET DESC: Solute carrier family 2, facilitated glucose transporter member 1 (Homo sapiens)
- EXPERIMENT: ST_JUDE_LEISH: Cytotoxicity at 2uM final concentration against transgenic Leishmania Mexicana promastigotes LmGLUT1 that are glucose transport deficient and complemented with the human glucose transporter GLUT1. Activity is measured by DNA content using SYBR green in vitro
- Format: functional
QUANTITY MEASURED: inhibition

# count of solved cases: 3
| COMPOUND | TARGET DESC | inhibition |
| --- | --- | --- |
| OC(c1cc(C(F)(F)F)nc2c(F)cccc12)C1CCCCN1 (stereo unspecified) | Solute carrier family 2, facilitated glucose transporter member 1 (Homo sapiens) | 0.27% |
| COc1cc(F)c2ncc(Cl)c(CCN3CCC(NCc4ccc5c(c4)OCCO5)CC3)c2c1 | Solute carrier family 2, facilitated glucose transporter member 1 (Homo sapiens) | 41.6% |
| COc1ccc(CCCc2nc(N)nc(N)c2-c2ccc(Cl)cc2)cc1 | Solute carrier family 2, facilitated glucose transporter member 1 (Homo sapiens) | 6.21% |

Please supply inhibition for each of the following items, keeping them in order.
1. COc1ccc2ncc(C#N)c(CCN3C[C@H](CNCc4ccccc4)[C@H](O)C3)c2n1
2. O=C(Cc1ccccc1)NC(c1ccccc1)c1ccc2cccnc2c1O (stereo unspecified)

1. 3.18%
2. 2.31%

Fill in reported inhibition for this entry: O=C(Nc1cccc(-c2csc(NC(=O)c3ccc4ccccc4c3)n2)c1)c1ccc2ccccc2c1
1.53%
